- assayed_system: T1, BTN3A2 (Homo sapiens, UniProt P78410)
- T1 construct: Fc (Fc-chimera); purchased R&D systems; host or cells: HEK293
- T1 sequence (P78410 with tags, fused parts or gaps limits assumed): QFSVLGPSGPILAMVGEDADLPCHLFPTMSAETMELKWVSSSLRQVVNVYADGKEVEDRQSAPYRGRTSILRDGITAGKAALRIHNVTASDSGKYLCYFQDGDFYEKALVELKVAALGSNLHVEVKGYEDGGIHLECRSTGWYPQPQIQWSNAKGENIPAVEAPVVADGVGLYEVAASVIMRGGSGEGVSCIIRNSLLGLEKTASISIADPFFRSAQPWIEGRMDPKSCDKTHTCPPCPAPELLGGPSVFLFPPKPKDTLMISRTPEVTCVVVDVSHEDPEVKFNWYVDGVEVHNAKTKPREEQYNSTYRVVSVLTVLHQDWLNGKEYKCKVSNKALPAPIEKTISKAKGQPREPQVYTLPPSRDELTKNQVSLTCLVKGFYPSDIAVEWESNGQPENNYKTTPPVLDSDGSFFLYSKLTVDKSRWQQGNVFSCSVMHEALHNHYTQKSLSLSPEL
- protocol_description: BTN isoform binding of yeast display antibodies (Octet isoform binding profile, binding affinity)
- condition: Table 4; Yes/No; hIgG1-297A isotype
experimental_endpoint: BTN3A2 Binding

>>> result_value("3B (antibody, V domains shown) VH: QVQLVQSGAEVKKPGASVKVSCKASGYTFTSYYMHWVRQAPGQGLEWMGIINPSGGSTSYAQKFQGRVTMTRDTSTSTVYMELSSLRSEDTAVYYCARPSGDYSGYDALDVWGQGTMVTVSS VL: EIVLTQSPATLSLSPGERATLSCRASQSVSSYLAWYQQKPGQAPRLLIYDASNRATGIPARFSGSGSGTDFTLTISSLEPEDFAVYYCQQDPYWPITFGGGTKVEIK")
"Yes"
>>> result_value("1G (antibody, V domains shown) VH: QVQLVQSGAEVKKPGASVKVSCKASGYTFTSYGISWVRQAPGQGLEWMGWISAYNGNTNYAQKLQGRVTMTTDTSTSTAYMELRSLRSDDTAVYYCARLGATVAYFDLWGRGTLVTVSS VL: EIVLTQSPATLSVSPGERATLSCRASQSVSSNLAWYQQKPGQAPRLLIYGASTRATGIPARFSGSGSGTEFTLTISSLQSEDFAVYYCQQDVYWPFTFGGGTKVEIK")
"Yes"
>>> result_value("3A (antibody, V domains shown) VH: QVQLVQSGAEVKKPGASVKVSCKASGYTFTSYYMHWVRQAPGQGLEWMGIINPGGGSTSYAQKFQGRVTMTRDTSTSTVYMELSSLRSEDTAVYYCARDAGHDYGDMAYWGQGTLVTVSS VL: DIQMTQSPSTLSASVGDRVTITCRASQSISSWLAWYQQKPGKAPKLLIYKASSLESGVPSRFSGSGSGTEFTLTISSLQPDDFATYYCQQYRSFPTFGGGTKVEIK")
"No"
>>> result_value("2A (antibody, V domains shown) VH: QVQLVQSGAEVKKPGASVKVSCKASGYTFTSYYIHWVRQAPGQGLEWMGIINPSGGSTSYAQKFQGRVTMTRDTSTSTVYMELSSLRSEDTAVYYCARATWEALHYWGQGTLVTVSS VL: EIVMTQSPATLSVSPGERATLSCRASQSVGSNLAWYQQKPGQAPRLLIYGASTRATGIPARFSGSGSGTEFTLTISSLQSEDFAVYYCQQYYAWPRTFGGGTKVEIK")
"No"

Every entry's value here was drawn from patent US20220064291A1.
